# subjectOfTest: Cytochrome P450 1A2 (Homo sapiens) (UniProt P05177)
# Sequence (P05177 whole entry, looked up): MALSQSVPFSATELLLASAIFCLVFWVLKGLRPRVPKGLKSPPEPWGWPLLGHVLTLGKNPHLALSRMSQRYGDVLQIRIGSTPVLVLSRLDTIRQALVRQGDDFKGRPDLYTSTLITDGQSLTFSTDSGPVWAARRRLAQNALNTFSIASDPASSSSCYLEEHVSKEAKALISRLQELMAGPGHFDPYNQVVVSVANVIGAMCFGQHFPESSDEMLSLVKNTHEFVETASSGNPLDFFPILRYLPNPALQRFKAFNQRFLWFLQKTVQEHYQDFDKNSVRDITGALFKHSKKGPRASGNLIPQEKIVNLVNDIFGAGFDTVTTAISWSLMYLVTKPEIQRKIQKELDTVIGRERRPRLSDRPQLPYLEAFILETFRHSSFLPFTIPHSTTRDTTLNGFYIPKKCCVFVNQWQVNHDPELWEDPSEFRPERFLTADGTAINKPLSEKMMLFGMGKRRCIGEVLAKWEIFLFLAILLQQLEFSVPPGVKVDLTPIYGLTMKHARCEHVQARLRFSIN
# testMethodNotes: Cytochrome panel assay with activity outcomes
# conditionNotes: recombinant CYP, pro-luciferin dealkylation, luminescence, p450-cyp1a2; series mostly up to 57.1 µM
Among all 16,000 compounds or so, about 5,700 (36%) were called active. Another 24% or so got no clear call; they are omitted. Calls come from the whole dose curve; as a rule, active = well fitted curve in the direction sought with a large enough effect; inconclusive = small, poorly fitted or top-dose-only effect, or effect the other way; inactive = no such curve, though single readings can be large or run the other way. The list shows a part of the results.
Just give me one of these, please: yes (1) for active, no (0) for inactive

These solved cases illustrate the format of a correct answer.
| molecule | label |
| --- | --- |
| O=C(NCCNc1ccc([N+](=O)[O-])cc1)c1ccccc1Br | no (0) |
| Cc1cccc(OC(=O)CN2C(=O)C3C4CCC(C4)C3C2=O)c1C (stereo unspecified) | yes (1) |
| N#Cc1ccccc1-c1ccc2ncnc(NC3CC3)c2c1 | yes (1) |
| COc1cccc(NC(=S)NNC(=O)C(C)n2nc(C)c([N+](=O)[O-])c2C)c1 (stereo unspecified) | no (0) |
| O=C(N/N=C/c1cc([N+](=O)[O-])ccc1N1CCNCC1)c1ccc([N+](=O)[O-])cc1 | no (0) |

Each molecule tested received a call. Report the one for CC(C)OCCCN1C(=O)c2ccccc2C1C(=O)NC1CCCCC1 (stereo unspecified) .
no (0)

Try this molecule next: Cc1cc(=O)oc(C)c1C(=O)NCc1ccccn1
yes (1)

Try O=C(N/N=C/c1ccc([N+](=O)[O-])s1)c1ccccc1Br next.
yes (1)

Now consider Cc1ccc(C(=O)N/N=C/c2ccc([N+](=O)[O-])s2)cc1 .
yes (1)

Cool, now CC(C)OCCCn1c(=S)[nH]c2ncccc2c1=O
yes (1)

And then Cc1cccc(NC(=S)N/N=C/c2ccc([N+](=O)[O-])s2)c1 , what is it?
yes (1)
